# key: entry, value: melting point
ATTRIBUTE MEASURED: melting point

{"COMPOUND": "NC(=O)CCCCCCCOc1nc(-c2ccccc2)c(-c2ccccc2)n1-c1ccccc1", "ATTRIBUTE MEASURED": "melting point", "RESULT VALUE": "152 to 154 °C"}
{"COMPOUND": "O=C(NCc1cccc(-c2nc(=O)c3ccccc3s2)n1)c1ccccc1", "ATTRIBUTE MEASURED": "melting point", "RESULT VALUE": "214 to 215 °C"}
{"COMPOUND": "CC(NC(=O)c1c[nH]c2ncc(-c3nn(CC(O)CO)c4cc(Cl)ccc34)nc12)C(=O)N1CC(C#N)C1 (stereo not given)", "ATTRIBUTE MEASURED": "melting point", "RESULT VALUE": "165 to 180 °C"}
{"COMPOUND": "CCCc1nc2cnc3ccccc3c2n1CCC1(O)CCOCC1", "ATTRIBUTE MEASURED": "melting point", "RESULT VALUE": "186 to 188 °C"}
{"COMPOUND": "CSc1cc(-c2ccc(Cl)cc2)nc(-c2cccc(Cl)c2)c1", "ATTRIBUTE MEASURED": "melting point", "RESULT VALUE": "98.4 °C"}

###

# key: entry, value: melting point

{"MOLECULE": "CCn1c(=O)cc(C)c2cc(C(O)(C(F)(F)F)C(F)(F)F)ccc21", "melting point": "91 to 92 °C"}
{"MOLECULE": "Cc1cc(C)c(-c2csc(N)n2)c(C)c1", "melting point": "138 °C"}
{"MOLECULE": "CCc1cccc(C)c1CNc1cc(Br)cc2c1nc(C)n2C", "melting point": "145 to 147 °C"}
{"MOLECULE": "CC(=O)OCc1cccc(C(C)C)c1NC(=O)CC1c2ccccc2Oc2ccccc21", "melting point": "155 to 156 °C"}
{"MOLECULE": "Cn1ncnc1COc1nn2c(-c3ccccc3F)nncc2c1I", "melting point": "218 to 219 °C"}
{"MOLECULE": "CCCCN1CCN(c2nsc3nc4ccccc4n23)CC1", "melting point": "121 to 122 °C"}
{"MOLECULE": "CS(=O)(=O)CN=C(N)NCCSCc1csc(NC(N)=NCC(F)(F)C(F)(F)F)n1", "melting point": "149 to 151 °C"}
{"MOLECULE": "Cc1ccc2nc(C)n(C3CCC(=O)NC3=O)c(=O)c2c1 (stereo not given)", "melting point": "270 to 272 °C"}
{"MOLECULE": "COc1cc(OC)cc(N2CCN(C(=O)N(C)c3cc(C)c(C)cc3OC)CC2)c1", "melting point": "86 to 88 °C"}
{"MOLECULE": "CC(=O)C1C(C(=O)c2ccc(Cl)cc2)CC2C3CCC4=CC(=O)CCC4(C)C3(F)C(O)CC21C (stereo not given)", "melting point": "280 to 281 °C"}

###

{"COMPOUND": "CN1C(=O)CCC2(C)C1=CCc1cc(F)ccc12 (stereo not given)", "melting point": "110 to 111 °C"}
{"COMPOUND": "CC(=O)c1ccc(SCCOc2ccc3ccccc3c2)cc1", "melting point": "151 to 152 °C"}
{"COMPOUND": "CCOC(=O)c1cnn2c1c(NC1CCCCCC1)nc1ccccc12", "melting point": "114 to 115 °C"}
{"COMPOUND": "Nc1nc2ccccc2c2c1nc(-c1ccccc1)n2CCCCNC(=O)c1cccnc1", "melting point": "84.5 to 86.1 °C"}
{"COMPOUND": "O=C(NCc1ccncc1)c1cc(-n2cnn(Cc3ccc(F)cc3)c2=O)n[nH]1", "melting point": "262 to 263 °C"}
{"COMPOUND": "CNC(=S)NCCSCc1[nH]cnc1C", "melting point": "150 to 152 °C"}
{"COMPOUND": "C[C@H](C(=O)O)C(C)(C)c1ccccc1", "melting point": "69 to 72 °C"}
{"COMPOUND": "CCOC(=O)C(Cc1ccc2ccccc2c1Br)C(=O)OCC", "melting point": "60 to 65 °C"}
{"COMPOUND": "O=C(C1CCN(c2ccncc2)CC1)N1CCC(Oc2ccc(Br)cc2)CC1", "melting point": "127 to 130 °C"}
{"COMPOUND": "Cc1ccc(S(=O)(=O)OC[C@H]2CCC[C@H](OCc3c(Cl)cccc3Cl)O2)cc1 (relative stereo)", "melting point": "123 to 124 °C"}

###

{"MOLECULE": "Cc1ccc2c(c1)NC(=S)C2=O", "melting point": "246 °C"}
{"MOLECULE": "CN1CCN(CCCNc2ccc(-n3cc(C(F)(F)F)ccc3=O)c(Cl)c2)CC1", "melting point": "129 to 132 °C"}
{"MOLECULE": "Cc1cc(Cl)cc(CO)c1", "melting point": "32 to 34.5 °C"}
{"MOLECULE": "CCOCCOc1cc(C(F)(F)F)cc(N(N)C(=CNS(C)(=O)=O)[N+](=O)[O-])n1", "melting point": "153 °C"}
{"MOLECULE": "Cc1cc(Nc2cc(-c3c(C)cccc3C)nc(Sc3ccc4ccccc4c3)n2)[nH]n1", "melting point": "148 to 152 °C"}
{"MOLECULE": "CS(=O)(=O)c1ccc(-c2cnn(-c3ccc(F)cc3)c(=O)c2COc2ccc(F)cc2)cc1", "melting point": "65 to 80 °C"}
{"MOLECULE": "CN(C)C=NC(=O)c1nn(-c2ccccc2)c(=O)cc1Oc1ccccc1", "melting point": "175 to 176 °C"}
{"MOLECULE": "CC(=O)CC(=O)NC12CC3CC(CC(C3)C1)C2", "melting point": "80 °C"}
{"MOLECULE": "O=C(O)CCCCCC(c1cc(F)ccc1F)S(=O)(=O)c1ccc(Cl)cc1 (stereo unspecified)", "melting point": "72 to 76 °C"}
{"MOLECULE": "Cn1nc2n(c1=O)-c1ccc(Cl)nc1C(c1ccccc1Cl)=NC2", "melting point": "200 to 202 °C"}
{"MOLECULE": "CN(C)C1CCN(c2nc(N3CCOCC3)c3ncnc(N(CCC#N)Cc4ccccc4)c3n2)CC1", "melting point": "45 to 47 °C"}
{"MOLECULE": "Cc1[nH]cnc1C(c1ccccc1)c1ccccc1", "melting point": "198 to 204 °C"}
{"MOLECULE": "O=C(OC1CCCC1=O)c1ccccc1 (stereo unspecified)", "melting point": "87 to 88 °C"}
{"MOLECULE": "COCc1cc(C(=O)CBr)on1", "melting point": "53 to 54 °C"}
{"MOLECULE": "CCOC(=O)CCc1c(OCCCCCBr)ccc2ccc(OCC(=O)OCC)cc12", "melting point": "29.5 to 32 °C"}
{"MOLECULE": "O=S(=O)(F)c1cc2nc(Cl)c(Cl)nc2cc1Cl", "melting point": "109 to 111 °C"}
{"MOLECULE": "CC(C)(C)COC(=O)C#CC1C(C(=O)OC(C#N)c2cccc(Oc3ccccc3)c2)C1(C)C (stereo unspecified)", "melting point": "67 °C"}
{"MOLECULE": "CN1CCc2cc(O)c(O)c(SCc3ccco3)c2CC1", "melting point": "162 to 165 °C"}
{"MOLECULE": "O=C(O)c1ccccc1C=Cc1ccc(-c2cc3ccc4ccccc4c3o2)cc1", "melting point": "210 to 211 °C"}
{"MOLECULE": "Cc1ccc2c(c1)C(=O)CC21CNC(=O)C1 (stereo unspecified)", "melting point": "162 to 164 °C"}
{"MOLECULE": "N#CCc1ccc(-c2nc3ccccc3o2)cc1[N+](=O)[O-]", "melting point": "203 °C"}

###

{"COMPOUND": "NC(=O)C1CCN(CCOc2ccccc2CCc2ccccc2)CC1", "melting point": "60 to 63 °C"}
{"COMPOUND": "CCN(CCN(C)C)c1ccc(-c2ccnc(Nc3cc(OC)c(OC)c(OC)c3)n2)cn1", "melting point": "90 °C"}
{"COMPOUND": "Cc1ccc2ncn([C@H](C)[C@](O)(Cn3cncn3)c3ccc(F)cc3F)c(=O)c2c1", "melting point": "189 to 190 °C"}
{"COMPOUND": "C=C(C)CNc1cc(Cl)nnc1Cl", "melting point": "172 to 175 °C"}
{"COMPOUND": "COc1ccc(-c2ccc(Br)c3ccsc23)cc1", "melting point": "103 to 104 °C"}
{"COMPOUND": "NC(=O)/C=C1/c2cc(F)cc(F)c2CC1O (stereo unspecified)", "melting point": "235 to 237 °C"}
{"COMPOUND": "CN1C(=O)CC[C@]2(C)c3ccc(-c4cnc5ccccc5n4)cc3CC[C@@H]12", "melting point": "129 to 135 °C"}
{"COMPOUND": "Cc1sc(N)nc1-c1ccc(CCN2CCN(c3cccc(C(F)(F)F)c3)CC2)cc1", "melting point": "110 to 115 °C"}
{"COMPOUND": "O=c1c2ccc(Cl)cc2[nH]c2c(O)nn(C3CCCc4ccccc43)c(=O)c12 (racemic)", "melting point": "> 300 °C"}
{"COMPOUND": "O=C1NCC=NN1c1ccc(Cc2ccc(Cl)cc2)c(Cl)c1", "melting point": "196 to 197 °C"}
{"COMPOUND": "Cc1ccc(-c2ccc3c(c2)C=C(C(=O)Nc2ccc(CNCc4ccccc4)cc2)CCO3)cc1", "melting point": "147 to 148 °C"}
{"COMPOUND": "Cc1ccncc1NC(=O)OC(C)(C)C", "melting point": "91 to 93 °C"}
{"COMPOUND": "CCCCc1oc2ccc(C(=O)OC)cc2c1C(=O)c1ccc(OCCCNCC(C)(C)C)cc1", "melting point": "61 to 63 °C"}
{"COMPOUND": "CCN1c2ncc(CCc3ccc4ccccc4c3)cc2C(=O)N(C)c2ccc(F)nc21", "melting point": "112 to 114 °C"}
{"COMPOUND": "CCc1nnc2c(N(CC)CC)nc3ccc(OC)cc3n12", "melting point": "135 to 138 °C"}
{"COMPOUND": "CCOC(=O)c1cn(CCO)c2c(F)c(F)c(F)cc2c1=O", "melting point": "175 to 177 °C"}
{"COMPOUND": "C=C1C(=N)NC(=O)N1Cc1ccccc1", "melting point": "225 °C"}
{"COMPOUND": "CC(=O)OCCc1ccc(-c2csc(=O)s2)cc1", "melting point": "55 to 56 °C"}
{"COMPOUND": "COc1ccc(C(=O)c2ccncc2)cc1OC", "melting point": "117 to 118 °C"}
{"COMPOUND": "O=S1(=O)NC2CCCN2c2c(F)cc(O)cc21 (stereo unspecified)", "melting point": "167 to 169 °C"}
{"COMPOUND": "OCC1OC(n2cnc3c(OCC4CC4)ncnc32)CC1F (stereo unspecified)", "melting point": "100 °C"}
{"COMPOUND": "Cc1nc(S(=O)(=O)CC(=O)OCc2cccs2)nc(C)c1Br", "melting point": "87 to 88 °C"}
{"COMPOUND": "CC(C)(C)OC(=O)N1CC=C(c2c[nH]c3ccc([N+](=O)[O-])cc23)CC1", "melting point": "210 to 212 °C"}
{"COMPOUND": "CCCCn1c(=O)c2cc(C(=O)O)cn2c2ccccc21", "melting point": "212 to 214 °C"}
{"COMPOUND": "O=C(O)c1cc([N+](=O)[O-])c(-c2ccncc2)[nH]c1=O", "melting point": "> 300 °C"}
{"COMPOUND": "Cc1cccc(Cl)c1C(=O)N[C@@H](Cc1ccc(-c2c(C)n(C)c(=O)n(C)c2=O)cc1)C(=O)O", "melting point": "238 to 240 °C"}
{"COMPOUND": "O=C(O)c1ccc(-c2ccc3cc(OCc4ccc(F)cc4)c(C45CC6CC(CC(C6)C4)C5)cc3c2)cc1O", "melting point": "240 to 241 °C"}
{"COMPOUND": "COc1cc(C=NOCc2ccccc2)c([N+](=O)[O-])cc1OC", "melting point": "109 to 113 °C"}
{"COMPOUND": "CN(C)CC(O)COc1ccccc1CCCCc1ccccc1C(N)=O (stereo unspecified)", "melting point": "149 to 151 °C"}
{"COMPOUND": "CSc1cc(SC)c(SC)cc1NC(C)=O", "melting point": "87 to 89 °C"}
{"COMPOUND": "CCCCCCCCC(=O)COS(=O)(=O)c1c(C)c(C)cc(C)c1C", "melting point": "36 to 37.5 °C"}
{"COMPOUND": "CCOC(=O)[C@H](Cc1ccc(-c2c(OC)cc(COS(C)(=O)=O)cc2OC)cc1)NC(=O)c1c(Cl)cccc1Cl", "melting point": "109 °C"}
{"COMPOUND": "Nc1nc2c(ncn2[C@@H]2CO[C@H](CO)C2)c(=O)[nH]1", "melting point": "261 to 263 °C"}
{"COMPOUND": "COc1cc(OC)c(-c2cccs2)cc1/C=C/C(=O)c1ccc(S(=O)(=O)NCC(=O)O)cc1", "melting point": "100 to 101 °C"}
{"COMPOUND": "Cc1ccc2c(C=O)c3ccccc3c(C=O)c2c1", "melting point": "150 to 152 °C"}
{"COMPOUND": "COc1ccc(N2CCOCC2)c2sc(NC(=O)N(C)C3CCCCCC3)nc12", "melting point": "198 to 200 °C"}
{"COMPOUND": "NC(=O)CN1C[C@@H]2CCCC[C@@H]2C1=O (relative stereo)", "melting point": "142 to 144 °C"}
{"COMPOUND": "Cc1c(C(=O)O)oc2c(c1=O)CSc1ccccc1-2", "melting point": "299 to 301 °C"}
{"COMPOUND": "CC(C)(C)OC(=O)NCc1cccc(CC(=O)O)c1", "melting point": "95 to 96.5 °C"}
{"COMPOUND": "COc1ccccc1-n1c(=O)[nH]c2c(C(N)=O)nc(NC[C@H]3CCCN3)nc21", "melting point": "155 to 157 °C"}
{"COMPOUND": "Clc1ccccc1-n1nnnc1Cl", "melting point": "101 to 103 °C"}

The origin of these recorded values is a melting point compilation (Tetko et al.; mined from patent text by program, amines drawn as free bases though some values may be those of a salt).
